Where do these numbers come from? They come from patent US20250215029A1.

IC50 listing for selected compounds.
- Target or system: Recombinant STAT3 protein (STAT3 (G127-I722)) (Homo sapiens, UniProt P40763)
- Construct: Recombinant STAT3 protein (STAT3 (G127-I722))
- Sequence (P40763 127-722): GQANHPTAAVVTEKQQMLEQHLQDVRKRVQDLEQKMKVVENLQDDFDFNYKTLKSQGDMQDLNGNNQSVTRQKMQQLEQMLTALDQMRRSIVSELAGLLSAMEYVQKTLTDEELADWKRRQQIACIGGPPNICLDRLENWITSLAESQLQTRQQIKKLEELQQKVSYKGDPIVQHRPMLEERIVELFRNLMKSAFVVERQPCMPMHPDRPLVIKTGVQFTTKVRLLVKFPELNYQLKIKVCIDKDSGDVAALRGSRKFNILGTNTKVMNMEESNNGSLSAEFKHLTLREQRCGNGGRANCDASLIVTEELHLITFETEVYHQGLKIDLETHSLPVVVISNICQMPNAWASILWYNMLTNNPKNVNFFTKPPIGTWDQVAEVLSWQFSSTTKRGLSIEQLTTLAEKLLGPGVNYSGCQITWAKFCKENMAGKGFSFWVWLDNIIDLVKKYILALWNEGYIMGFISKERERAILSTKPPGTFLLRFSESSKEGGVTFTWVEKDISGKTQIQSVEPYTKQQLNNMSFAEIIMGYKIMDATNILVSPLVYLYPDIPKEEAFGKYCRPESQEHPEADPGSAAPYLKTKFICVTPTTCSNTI
- Test details: STAT3 Fluorescence Polarization (FP) Assay
- Assay type: binding
- Condition parameters: STAT3 (G127-I722) 25 nM, probe 5-FAM-GpYLPQTV-NH2 2 nM, 45-minute incubation; read-out: STAT3 (FP assay IC50 class)

Worked examples, 5 compounds total:
[[record]]
compound = "O=C(N[C@H]1CCCC[C@H]2CC[C@@H](C(=O)N3CCC(c4cc[nH]n4)CC3)N2C1=O)c1cc2cc(C(F)P(=O)(O)O)ccc2s1 (stereo partly drawn)"
target_or_system = "Recombinant STAT3 protein (STAT3 (G127-I722)) (Homo sapiens, UniProt P40763)"
measured = "1000 to 10000 nM"

[[record]]
compound = "O=C(N[C@H]1CCC[C@H]2CC[C@@H](C(=O)N3CC(c4cnccc4C4CC4)C3)N2C1=O)c1cc2cc(CP(=O)(O)O)ccc2s1"
target_or_system = "Recombinant STAT3 protein (STAT3 (G127-I722)) (Homo sapiens, UniProt P40763)"
measured = "100 to 1000 nM"

[[record]]
compound = "O=C(N[C@H]1CCCC[C@H]2CC[C@@H](C(=O)N3CC(N4CCS(=O)(=O)CC4)C3)N2C1=O)c1cc2cc(C(F)P(=O)(O)O)ccc2s1 (stereo partly drawn)"
target_or_system = "Recombinant STAT3 protein (STAT3 (G127-I722)) (Homo sapiens, UniProt P40763)"
measured = "100 to 1000 nM"

[[record]]
compound = "COc1cc(C2CN(C(=O)C3CCC4CCCCC(NC(=O)c5cc6cc(C(F)(F)P(=O)(O)O)ccc6s5)C(=O)N43)CC2C#N)cc(C)n1 (mixture of isomers)"
target_or_system = "Recombinant STAT3 protein (STAT3 (G127-I722)) (Homo sapiens, UniProt P40763)"
measured = "1000 to 10000 nM"

[[record]]
compound = "CCc1ccncc1C1CN(C(=O)[C@@H]2CC[C@@H]3CCC[C@H](NC(=O)c4ccc5sc(CP(=O)(O)O)cc5c4)C(=O)N32)C1"
target_or_system = "Recombinant STAT3 protein (STAT3 (G127-I722)) (Homo sapiens, UniProt P40763)"
measured = "100 to 1000 nM"


# IC50 of CO[C@@H]1CC[C@@H](NC(=O)[C@@H]2CC[C@@H]3CCC[C@H](NC(=O)c4cc5cc(C(F)P(=O)(O)O)ccc5s4)C(=O)N32)C1 (stereo partly drawn) = 1000 to 10000 nM

---

- Target or system: Recombinant STAT6 protein (STAT6 (W123-T658)) (Homo sapiens)
- Construct: Recombinant STAT6 protein (STAT6 (W123-T658))
- Sequence (P42226 123-658): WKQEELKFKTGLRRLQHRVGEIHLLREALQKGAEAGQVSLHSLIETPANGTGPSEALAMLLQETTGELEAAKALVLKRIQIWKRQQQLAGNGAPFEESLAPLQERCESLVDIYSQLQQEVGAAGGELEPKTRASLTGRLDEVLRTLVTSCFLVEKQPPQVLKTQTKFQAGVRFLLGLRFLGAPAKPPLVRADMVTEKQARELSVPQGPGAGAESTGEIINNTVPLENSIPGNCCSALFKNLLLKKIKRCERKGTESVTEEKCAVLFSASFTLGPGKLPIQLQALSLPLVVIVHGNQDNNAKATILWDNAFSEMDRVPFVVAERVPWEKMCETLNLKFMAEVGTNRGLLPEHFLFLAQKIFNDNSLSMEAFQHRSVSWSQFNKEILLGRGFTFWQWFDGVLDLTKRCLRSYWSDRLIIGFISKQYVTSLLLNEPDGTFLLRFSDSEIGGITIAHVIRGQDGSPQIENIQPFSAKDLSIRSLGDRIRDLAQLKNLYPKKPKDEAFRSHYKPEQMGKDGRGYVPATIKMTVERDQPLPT
- Test details: STAT6 Fluorescence Polarization (FP) Assay
- Format: binding
- Condition parameters: STAT6 (W123-T658) 250 nM, probe 5-FAM-Ap[…]-NH2 2 nM, 45-minute incubation; read-out: STAT6 (FP assay IC50 class)
pIC50: −log10 of the molar value.
Measure: pIC50

[[record]]
compound = "O=C(N[C@H]1CCCC[C@H]2CC[C@@H](C(=O)N3C[C@H](c4cccnc4)CC34CC4)N2C1=O)c1cc2cc([C@@H](F)P(=O)(O)O)ccc2s1 (single isomer, unassigned) [Compound 909]"
measured = "≥ 6.52"

[[record]]
compound = "C/C1=C/C[C@H](NC(=O)c2cc3cc(CP(=O)(O)O)ccc3s2)C(=O)N2[C@H](CC[C@H]2C(=O)N2CC(c3cnccc3C)C2)C1 [Compound 642]"
measured = "4.52 to 5.52"


Now for the compound whose pIC50 we want.
The compound listed as C[C@H]1C[C@H]2CC[C@@H](C(=O)N3CC(c4cnccc4N(C)C)C3)N2C(=O)[C@@H](NC(=O)c2cc3cc(CP(=O)(O)O)ccc3s2)C1 [Compound 638] shows pIC50 equal to 4.52 to 5.52
